biological target: FGFR2IIIb on cells (human, UniProt P21802); experiment: FACS, SNU-16
Sequence (P21802 22-377): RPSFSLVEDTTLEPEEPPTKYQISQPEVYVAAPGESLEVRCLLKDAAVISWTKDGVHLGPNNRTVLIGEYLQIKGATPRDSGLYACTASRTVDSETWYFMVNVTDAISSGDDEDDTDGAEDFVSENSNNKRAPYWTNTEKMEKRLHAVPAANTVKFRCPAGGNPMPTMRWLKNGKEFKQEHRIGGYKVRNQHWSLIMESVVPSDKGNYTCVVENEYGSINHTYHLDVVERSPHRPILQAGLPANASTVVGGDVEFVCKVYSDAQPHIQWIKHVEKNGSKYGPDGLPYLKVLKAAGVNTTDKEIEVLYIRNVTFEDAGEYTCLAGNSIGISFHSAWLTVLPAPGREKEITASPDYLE
measured.endpoint: EC50 (µg/mL)
Give bare numbers, in µg/mL.

Quick note, EC50 for III-10 (antibody, V domains shown) VH: QVQLVQSGAEVKKPGSSVKVSCKASGYTFANYNMHWVRQAPGQGLEWIGAIYPGNGDTSYNQKFKGKATLTADKSTSTAYMELSSLRSEDTAVYYCARGDFGYWGQGTLVTVSS VL: DIVMTQSPSSLSASVGDRVTITCKASQDVNIDVAWYQQKPGKAPKLLIYSASYRYTGVPSRFSGSGSGTDFTFTISSLQPEDFATYYCQQHYSTPYTFGQGTKLEIK landed at 0.471
